Entries and their composite z-score values follow.
study_system: Dihydroorotate dehydrogenase (quinone), mitochondrial (Plasmodium falciparum (isolate 3D7))
method: PfDHODH enzyme inhibitors, primary screen, biochemical, C-terminal His tag, absorbance 600 nm (AID 1175);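 further: recombinant parasite enzyme with a five histidine tag at its C terminus; test concentration not given here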
settings: DCIP absorbance 600 nm, higher = more signal, called active from +8 up or from −8 down
Calls of active or inactive are those of the source.

- compound: "CCCCCN1CC=CC23O[C@@H]4/C=C\\CCC(C)OC(=O)C4[C@H]2C(=O)N(CCO)[C@@H]3C1=O (some centres not stated)"
  composite z-score: "0.0255 (inactive)"
- compound: "C=CC[C@@H](OC(=O)Nc1ccc(SC)cc1)c1ccc(OCCO)cc1"
  composite z-score: "-1.13 (inactive)"
- compound: "COCCCNC(=O)[C@@]1(C)c2ccccc2C(=O)N(Cc2cc(F)cc(C(F)(F)F)c2)[C@H]1c1ccc(CO)cc1"
  composite z-score: "0.408 (inactive)"
- compound: "COc1ccc([Si](C)(C)[C@H]2[C@H](CC(=O)N3Cc4ccccc4C[C@H]3CO)O[C@@]3(C(=O)N(Cc4cccc(N5C(=O)COc6ccccc65)c4)c4ccccc43)[C@@H]2C)cc1"
  composite z-score: "-0.0999 (inactive)"
- compound: "C=C(/C(=C/C[C@H](OC(C)=O)c1cccc(OCCO)c1)c1cc(C(=O)OC)ccc1OC)C(C)C"
  composite z-score: "-0.569 (inactive)"
- compound: "CC1CC/C=C\\[C@H]2OC34C=CCN(C(C)C)C(=O)[C@H]3N(C(CO)C(C)C)C(=O)[C@@H]4C2C(=O)O1 (some centres not stated)"
  composite z-score: "-1.87 (inactive)"
- compound: "C[N+](C)(C)CCCC[C@@H]1NC(=O)[C@H]2C[C@@H](C(=O)NCCCCCN)[C@@H](c3cccc(OCCO)c3)N2C1=O"
  composite z-score: "-0.407 (inactive)"
